assay.readout: melting point (°C)
Answers are plain numbers, in °C.

Worked examples, 5 compounds total:
- CC(Oc1ccc(Cl)cc1Cl)C(=O)NCc1ccc2c(c1)OCCCO2 (centres unmarked) [MBX-1999]: 115
- COc1ccc(CNC(=O)C(C)Nc2ccc(Cl)cc2Cl)cc1OC (centres unmarked) [MBX-2213]: 132
- CC(Oc1ccc(Cl)cc1Cl)C(=O)NCc1cccc(F)c1 (centres unmarked) [MBX-1963]: 106
- COc1cccc(CNC(=O)C(C)Oc2ccc(Cl)cc2Cl)c1 (centres unmarked) [MBX-1941]: 119
- CC(Oc1ccc(Cl)cc1Cl)C(=O)NCc1ccc2c(ccn2C)c1 (centres unmarked) [MBX-2591]: 146

Provide the reported melting point of each entry below, same order.
1. CC(Oc1ccc(Cl)cc1Cl)C(=O)NC(c1ccc(F)cc1)C(C)C (centres unmarked) [MBX-2617]
2. CC(Oc1ccc(Cl)cc1Cl)C(=O)NCc1ccc(N(C)C)cc1 (centres unmarked) [MBX-1961]

Ans.
1: 107; 2: 127

Provide the reported melting point of each entry below, same order.
1. CC(Oc1ccc(Cl)cc1Cl)C(=O)NCc1cnc2[nH]ccc2c1 (centres unmarked) [MBX-2709]
2. CC(Oc1ccc(Cl)cc1Cl)C(=O)NC(c1ccc(F)cc1)C1CC1 (centres unmarked) [MBX-2614]
3. CC(Oc1ccc(Cl)cc1Cl)C(=O)NCc1cccc(N(C)C)c1 (centres unmarked) [MBX-1960]
4. COc1cccc(OC)c1CNC(=O)C(C)Oc1ccc(Cl)cc1Cl (centres unmarked) [MBX-1950]
5. CC(Oc1ccc(Cl)cc1Cl)C(=O)NCc1ccccc1N(C)C (centres unmarked) [MBX-1959]
6. CCCCC(NC(=O)C(C)Oc1ccc(Cl)cc1Cl)c1ccc(F)cc1 (centres unmarked) [MBX-2629]
7. CC1Cc2cc(CNC(=O)C(C)Oc3ccc(Cl)cc3Cl)ccc2O1 (centres unmarked) [MBX-2001]

Ans.
198
109
108
122
85
100
100

Provide the reported melting point of each entry below, same order.
1. CC(Oc1ccc(Cl)cc1Cl)C(=O)NC1CCCc2cc(F)ccc21 (centres unmarked) [MBX-2601]
2. CC(Oc1ccc(Cl)cc1Cl)C(=O)NCc1ccc(Cl)cc1 (centres unmarked) [MBX-1958]
3. CC(Oc1ccc(Cl)cc1Cl)C(=O)NCc1ccc(F)nc1 (centres unmarked) [MBX-2677]
4. COc1ccc(OC)c(CNC(=O)C(C)Oc2ccc(Cl)cc2Cl)c1 (centres unmarked) [MBX-1947]
5. CC(Oc1ccc(Cl)cc1Cl)C(=O)NCc1ccc2c(c1)n(C)c(=O)n2C (centres unmarked) [MBX-1996]
6. CC(Oc1ncc(Cl)cc1Cl)C(=O)NCc1ccc(F)cc1 (centres unmarked) [MBX-2158]

Ans.
1: 82; 2: 115; 3: 55; 4: 67; 5: 180; 6: 129

---

assay.readout: melting point (°C)
Numbers only, in °C.

Worked examples, 5 compounds total:
- CC(Oc1ccc(Cl)cc1Cl)C(=O)NCc1ccc2[nH]ccc2c1 (stereo not shown): 91
- CC(Oc1ccc(Cl)cc1Cl)C(=O)NCc1ccc(-c2ccccc2)cc1 (stereo not shown): 114
- CC(Oc1ccc(Cl)cc1Cl)C(=O)NCCCc1ccc(F)cc1 (stereo not shown): 112
- CC(Oc1ccc(Cl)cc1Cl)C(=O)NC1(c2ccc(F)cc2)CC1 (stereo not shown): 134
- COc1ccc(CNC(=O)C(C)Sc2ccc(Cl)cc2Cl)cc1 (stereo not shown): 89

Provide the reported melting point of each entry below, same order.
1. CC(Oc1ccc(Cl)cc1Cl)C(=O)NCc1ccc2c(c1)CCCO2 (stereo not shown)
2. COc1cc(OC)c(OC)cc1CNC(=O)C(C)Oc1ccc(Cl)cc1Cl (stereo not shown)
3. CC(Oc1ccc(Cl)cc1Cl)C(=O)NCc1ccccc1Cl (stereo not shown)
4. CC(Oc1ccc(Cl)cc1Cl)C(=O)NCc1ccccc1 (stereo not shown)
5. COc1ccc(CNC(=O)C(C)Oc2ccc(F)cc2Cl)cc1OC (stereo not shown)

Ans.
106
142
113
121
101

---

assay.readout: melting point (°C)
Numbers only, in °C.

Provide the reported melting point of each entry below, same order.
1. COc1ccc(CNC(=O)C(C)Oc2ccc(Cl)cc2Cl)c(OC)c1 (centres unmarked) [MBX-1949]
2. COc1ccc(CNC(=O)C(C)Sc2ccc(Cl)cc2Cl)cc1OC (centres unmarked) [MBX-2162]
3. O=C(COc1ccc(Cl)cc1Cl)NCc1ccc2c(c1)OCO2 [MBX-1668]
4. CC(Oc1ccc(Cl)cc1Cl)C(=O)NCc1ccc(N2CCCC2=O)cc1 (centres unmarked) [MBX-1987]
5. CC(Oc1ccc(Cl)cc1Cl)C(=O)NC(C)(C)c1ccc(F)cc1 (centres unmarked) [MBX-2616]

Ans.
117
112
117
138
105

---

- Test system: T3SS-mediated cytotoxicity of translocated effector protein ExoU in CHO cells
- assay.summary: Inhibition of P. aeruginosa ExoU-dependent CHO cell killing (translocation, LDH release)
- Format: cell-based
- assay.setup: Pseudomonas aeruginosa, read-out: Avg. Translocation IC50
assay.readout: pIC50
One number for each entry, as −log10 of the molar value.

• CC(Oc1ccc(Cl)cc1Cl)C(=O)NCc1cc2ccccc2[nH]1 (centres unmarked) = 4.80
• CC(Oc1ccc(Cl)cc1Cl)C(=O)NCc1ccc2c(c1)CCCO2 (centres unmarked) = 5.04
• CC(Nc1ccc(Cl)cc1Cl)C(=O)NCc1ccc2c(c1)OCO2 (centres unmarked) = 4.45

Provide the reported pIC50 of each entry below, same order.
1. CC(Oc1ccc(Cl)cc1Cl)C(=O)N(C)Cc1ccc2c(c1)OCO2 (centres unmarked)
2. CC(Oc1ccc(Cl)cc1Cl)C(=O)NC(C)(C)c1ccc2c(c1)OCO2 (centres unmarked)

Ans.
[4.61, 4.82]

Provide the reported pIC50 of each entry below, same order.
1. CC(Oc1ccc(Cl)cc1Cl)C(=O)NCc1ccc2[nH]c(CCO)cc2c1 (centres unmarked)
2. COc1ccc(CNC(=O)C(C)Sc2ccc(Cl)cc2Cl)cc1 (centres unmarked)

Ans.
5.04
4.91

Provide the reported pIC50 of each entry below, same order.
1. CC(Oc1ccc(Cl)cc1Cl)C(=O)NCc1cccc(Cl)c1 (centres unmarked)
2. Cc1ccccc1CNC(=O)C(C)Oc1ccc(Cl)cc1Cl (centres unmarked)

Ans.
1: 5.27; 2: 4.18

Provide the reported pIC50 of each entry below, same order.
1. CC(Oc1ccc(Cl)cc1Cl)C(=O)NCc1ccc(N2CCCC2=O)cc1 (centres unmarked)
2. CC(Oc1ccc(Cl)cc1Cl)C(=O)NC(C)c1ccc2c(c1)OCO2 (centres unmarked)

Ans.
1: 4.70; 2: 4.96

---

assay.readout: melting point (°C)
Numbers only, in °C.

Worked examples, 5 compounds total:
* CC(Oc1ccc(F)cc1Cl)C(=O)NCc1ccc2c(c1)OCO2 (stereo not drawn) [MBX-2026] | 95
* CC(Oc1ccc(Cl)cc1Cl)C(=O)NCc1ccc2cc[nH]c2c1 (stereo not drawn) [MBX-2594] | 120
* CC(Oc1ccc(Cl)cc1Cl)C(=O)NC(C)c1ccc2c(c1)OCO2 (stereo not drawn) [MBX-2187] | 109
* CC(C)(Oc1ccc(Cl)cc1Cl)C(=O)NCc1ccc2c(c1)OCO2 [MBX-1685] | 92
* COc1ccc(CNC(=O)C(C)Nc2ccc(Cl)cc2Cl)cc1 (stereo not drawn) [MBX-2214] | 125

Provide the reported melting point of each entry below, same order.
1. CC(Oc1ccc(Cl)cc1Cl)C(=O)NCc1ccc2[nH]c(CCO)cc2c1 (stereo not drawn) [MBX-2626]
2. CC(Oc1ccc(Cl)cc1Cl)C(=O)NCc1ccc2[nH]cnc2c1 (stereo not drawn) [MBX-2593]
3. CC(Sc1ccc(Cl)cc1Cl)C(=O)NCc1ccc(F)cc1 (stereo not drawn) [MBX-2164]
4. CC(Oc1ncc(Cl)cc1Cl)C(=O)NCc1ccc(C2(C(F)(F)F)N=N2)cc1 (stereo not drawn) [MBX-2713]

Ans.
1: 157; 2: 71; 3: 142; 4: 112

---

- System: T3SS-mediated cytotoxicity of translocated effector protein ExoU in CHO cells
- assay.summary: Inhibition of P. aeruginosa ExoU-dependent CHO cell killing (translocation, LDH release)
- Assay type: cell-based
- assay.setup: Pseudomonas aeruginosa, read-out: Avg. Translocation IC50
assay.readout: log10 IC50 (log10 of the value in µM)
Use the decimal logarithm of IC50 (µM).

* CC(Oc1ccc(Cl)cc1Cl)C(=O)NCc1ccc2cc[nH]c2c1 (centres unmarked) [MBX-2594] | 0.72

Provide the reported log10 IC50 of each entry below, same order.
1. COc1cccc(OC)c1CNC(=O)C(C)Oc1ccc(Cl)cc1Cl (centres unmarked) [MBX-1950]
2. COc1cc2c(cc1CNC(=O)C(C)Oc1ccc(Cl)cc1Cl)OCCO2 (centres unmarked) [MBX-1998]
3. CC(Oc1ccc(Cl)cc1Cl)C(=O)NCc1ccc(F)cc1 (centres unmarked) [MBX-1642]
4. CC(Oc1ccc(Cl)cc1Cl)C(=O)NCc1ccc(Cl)cc1 (centres unmarked) [MBX-1958]
5. CC1Cc2cc(CNC(=O)C(C)Oc3ccc(Cl)cc3Cl)ccc2O1 (centres unmarked) [MBX-2001]
6. CC(Oc1ccc(Cl)cc1Cl)C(=O)NC(C#N)c1ccc(F)cc1 (centres unmarked) [MBX-2627]
7. CC(Oc1ccc(Cl)cc1Cl)C(=O)NCc1ccc2[nH]cnc2c1 (centres unmarked) [MBX-2593]

Ans.
[0.70, 1.71, 1.18, 0.98, 1.92, 1.04, 1.52]

Provide the reported log10 IC50 of each entry below, same order.
1. CC(Oc1ccc(Cl)cc1Cl)C(=O)NCc1ccccc1 (centres unmarked) [MBX-1939]
2. CC(Oc1ccc(Cl)cc1Cl)C(=O)NCCc1c[nH]c2cc(F)ccc12 (centres unmarked) [MBX-2613]
3. CC(Oc1ccc(Cl)cc1Cl)C(=O)NC(c1ccc(F)cc1)C1CC1 (centres unmarked) [MBX-2614]
4. CC(Oc1ccc(Cl)cc1Cl)C(=O)NCc1cccc(F)c1 (centres unmarked) [MBX-1963]
5. CC(Oc1ncc(Cl)cc1Cl)C(=O)NCc1ccc(F)cc1 (centres unmarked) [MBX-2158]
6. CC(Oc1ccc(Cl)cc1Cl)C(=O)NCc1ccccc1F (centres unmarked) [MBX-1962]
7. CC(Oc1ccc(Cl)cc1Cl)C(=O)NCc1ccccc1N(C)C (centres unmarked) [MBX-1959]
8. CC(Oc1ccc(Cl)cc1Cl)C(=O)NCc1cccc(N(C)C)c1 (centres unmarked) [MBX-1960]

Ans.
1: 0.88; 2: 1.00; 3: 0.92; 4: 0.69; 5: 1.42; 6: 0.91; 7: 1.78; 8: 1.76

Provide the reported log10 IC50 of each entry below, same order.
1. COc1cc(CNC(=O)C(C)Oc2ccc(Cl)cc2Cl)cc(OC)c1 (centres unmarked) [MBX-1943]
2. CC(Oc1ccc(Cl)cc1Cl)C(=O)NCCc1ccc(F)cc1 (centres unmarked) [MBX-2588]
3. Cc1c(-c2ccccc2)[nH]c2ccc(CNC(=O)C(C)Oc3ccc(Cl)cc3Cl)cc12 (centres unmarked) [MBX-2600]

Ans.
1. 1.37
2. 1.83
3. 1.92
